# Target entity: AGT-Ma (S81L-Ma homodimer) (Homo sapiens, UniProt P21549, S81L)
# Sequence (P21549 1-392 S81L): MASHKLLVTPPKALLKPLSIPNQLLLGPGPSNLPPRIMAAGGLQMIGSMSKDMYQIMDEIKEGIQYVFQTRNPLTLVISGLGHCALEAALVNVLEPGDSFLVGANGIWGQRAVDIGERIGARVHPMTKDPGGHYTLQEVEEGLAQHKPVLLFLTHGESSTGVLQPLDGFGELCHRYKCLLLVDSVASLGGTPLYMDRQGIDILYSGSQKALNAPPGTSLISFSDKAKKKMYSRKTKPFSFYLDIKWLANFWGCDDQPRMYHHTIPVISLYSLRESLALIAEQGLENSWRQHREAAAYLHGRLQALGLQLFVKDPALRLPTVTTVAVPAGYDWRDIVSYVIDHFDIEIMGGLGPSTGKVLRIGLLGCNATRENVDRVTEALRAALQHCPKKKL
# Protocol details: CD signal change at […] nm on PLP titration of apoenzyme
Assay endpoint: pKd
Convention used: pKd is expressed as -log10 of the molar concentration.

# assay system AGT-Ma (S81L-Ma homodimer) (Homo sapiens, UniProt P21549, S81L): give pKd of `Cc1ncc(COP(=O)(O)O)c(C=O)c1O` 4.77
